Each recorded value in this set is attributed to ChEMBL document CHEMBL1131670.

target system: Cyclooxygenase (Rattus norvegicus, UniProt P35355+Q63921)
test summary: Inhibitory activity against cyclooxygenase (COX) in intact rat […] leukemia cells (RBL-1)
Assay type: cell-based
For each record, check the reported IC50: if it is below 2 µM write MET, else write NOT MET.

>>> class_name("CCOC(=O)C(=O)N(O)C(C)C#Cc1cc(-c2ccc(C)cc2)n(-c2ccc(OC)cc2)n1 (stereo not drawn)")
"NOT MET"
>>> class_name("CCC(C#Cc1cc(-c2ccc(Cl)cc2)n(-c2ccc(OC)cc2)n1)N(O)C(N)=O (stereo not drawn)")
"NOT MET"
>>> class_name("CCc1ccc(-c2cc(C#CC(C)N(O)C(=O)C(C)C)nn2-c2ccc(OC)cc2)cc1 (stereo not drawn)")
"MET"
>>> class_name("CCOC(=O)CCC(=O)N(O)C(C)C#Cc1cc(-c2ccc(CC)cc2)n(-c2ccc(OC)cc2)n1 (stereo not drawn)")
"NOT MET"
>>> class_name("CCC(C#Cc1cc(-c2ccc(C)cc2)n(-c2ccc(OC)cc2)n1)N(O)C(N)=O (stereo not drawn)")
"NOT MET"
>>> class_name("CCOC(=O)CCC(=O)N(O)C(C)C#Cc1cc(-c2ccc(C)cc2)n(-c2ccc(OC)cc2)n1 (stereo not drawn)")
"NOT MET"
>>> class_name("COc1ccc(-n2nc(C#CCN(O)C(N)=O)cc2-c2ccc(C)cc2)cc1")
"NOT MET"
>>> class_name("COc1ccc(-n2nc(CCC(=O)N(C)O)cc2-c2ccc(Cl)cc2)cc1")
"NOT MET"
>>> class_name("COC(=O)N(O)C(C)C#Cc1cc(-c2ccc(C)cc2)n(-c2ccc(OC)cc2)n1 (stereo not drawn)")
"MET"
>>> class_name("COc1ccc(-n2nc(C#CC(C)N(O)C(=O)C(C)C)cc2-c2ccc(C)cc2)cc1 (stereo not drawn)")
"MET"
>>> class_name("COC(=O)N(O)C(C)C#Cc1cc(-c2ccc(Cl)cc2)n(-c2ccc(OC)cc2)n1 (stereo not drawn)")
"MET"
>>> class_name("COc1ccc(-n2nc(C#CC(C)N(O)C(=O)N3CCOCC3)cc2-c2ccc(Cl)cc2)cc1 (stereo not drawn)")
"MET"
>>> class_name("CCc1ccc(-c2cc(C#CC(C)N(O)C(C)=O)nn2-c2ccc(OC)cc2)cc1 (stereo not drawn)")
"MET"
>>> class_name("COc1ccc(-n2nc(C#CC(C)N(O)C(=O)c3ccccc3)cc2-c2ccc(Cl)cc2)cc1 (stereo not drawn)")
"NOT MET"
>>> class_name("COc1ccc(-n2nc(C#CC(C)N(O)C(N)=O)cc2-c2ccc(C)cc2)cc1 (stereo not drawn)")
"MET"
>>> class_name("COc1ccc(-n2nc(C#CCN(O)C(=O)c3ccncc3)cc2-c2ccc(C)cc2)cc1")
"NOT MET"
>>> class_name("CCc1ccc(-c2cc(C#CC(C)N(O)C(=O)OC)nn2-c2ccc(OC)cc2)cc1 (stereo not drawn)")
"MET"
>>> class_name("COc1ccc(-n2nc(C#CC(C)N(O)C(N)=O)cc2-c2ccc(Cl)cc2)cc1 (stereo not drawn)")
"NOT MET"
>>> class_name("COc1ccc(-n2nc(C#CC(C)N(O)C(C)=O)cc2-c2ccc(C)cc2)cc1 (stereo not drawn)")
"MET"
>>> class_name("CCc1ccc(-c2cc(C#CC(C)N(O)C(=O)CCl)nn2-c2ccc(OC)cc2)cc1 (stereo not drawn)")
"MET"
>>> class_name("COc1ccc(-n2nc(C#CC(C(C)C)N(O)C(N)=O)cc2-c2ccc(Cl)cc2)cc1 (stereo not drawn)")
"NOT MET"
>>> class_name("COc1ccc(-n2nc(C#CC(C(C)C)N(O)C(N)=O)cc2-c2ccc(C)cc2)cc1 (stereo not drawn)")
"MET"
>>> class_name("COc1ccc(-n2nc(C#CCN(O)C(C)=O)cc2-c2ccc(C)cc2)cc1")
"MET"
>>> class_name("CCC(=O)N(O)CC#Cc1cc(-c2ccc(C)cc2)n(-c2ccc(OC)cc2)n1")
"MET"
>>> class_name("CCC(C#Cc1cc(-c2ccc(C)cc2)n(-c2ccc(OC)cc2)n1)N(O)C(C)=O (stereo not drawn)")
"MET"
>>> class_name("COC(=O)N(O)CC#Cc1cc(-c2ccc(C)cc2)n(-c2ccc(OC)cc2)n1")
"MET"
>>> class_name("COc1ccc(-n2nc(C#CC(C)N(O)C(=O)c3cccnc3)cc2-c2ccc(C)cc2)cc1 (stereo not drawn)")
"NOT MET"
>>> class_name("COc1ccc(-n2nc(C#CC(C)N(O)C(=O)C(F)(F)F)cc2-c2ccc(C)cc2)cc1 (stereo not drawn)")
"MET"
